Test: MTT-based cytotoxicity assay
Condition: human, C8166 cells, concentration causing 50% reduction in total C8166 cell number, means of two separate experiments, read-out: CC50 (50% cytotoxic concentration)
CC50 at 3 day values for the compounds below.
Result type: CC50 at 3 day (µg/mL)

>  <Compound>
CC(=O)N1N=C(c2ccccc2)OC1c1cn(S(=O)(=O)c2ccc(C)cc2)c2cc(C)ccc12 (stereo not drawn)

>  <U>
µg/mL

>  <Value observed>
80.8

$$$$
>  <Compound>
CC(=O)N1N=C(c2ccccc2)OC1c1cn(S(=O)(=O)c2cccc([N+](=O)[O-])c2)c2cc(C)ccc12 (stereo not drawn)

>  <U>
µg/mL

>  <Value observed>
20.2

$$$$
>  <Compound>
CC(=O)N1N=C(c2ccccc2)OC1c1cn(S(=O)(=O)c2ccc(C)cc2)c2ccc(C#N)cc12 (stereo not drawn)

>  <U>
µg/mL

>  <Value observed>
152

$$$$
>  <Compound>
CC(=O)N1N=C(c2ccccc2)OC1(C)c1cn(S(=O)(=O)c2ccccc2)c2ccc(C#N)cc12 (stereo not drawn)

>  <U>
µg/mL

>  <Value observed>
53

$$$$
>  <Compound>
COc1ccc(S(=O)(=O)n2cc(C3OC(c4ccccc4)=NN3C(C)=O)c3ccc(C)cc32)cc1 (stereo not drawn)

>  <U>
µg/mL

>  <Value observed>
11.2

$$$$
>  <Compound>
CC(=O)N1N=C(c2ccccc2)OC1(C)c1cn(S(=O)(=O)c2ccc(Cl)cc2)c2ccc(C#N)cc12 (stereo not drawn)

>  <U>
µg/mL

>  <Value observed>
113

$$$$

These entries and their values trace back to paper PMC6278315.
